target: YEATS2 YEATS domain (Homo sapiens, UniProt Q9ULM3)
Sequence (Q9ULM3 201-332 limits assumed): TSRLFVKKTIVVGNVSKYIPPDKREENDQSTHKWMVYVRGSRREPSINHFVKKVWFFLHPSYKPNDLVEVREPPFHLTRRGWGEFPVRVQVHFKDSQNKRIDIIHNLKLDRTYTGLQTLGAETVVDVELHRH
Residues, ends and D or L forms follow the SMILES beside them. *: point of attachment. Benzofuran(2-CO) = O=C(c1cc2ccccc2o1)*; Ms = CS(=O)(=O)*
quantity measured: IC50 (nM)
Value expressed in nM; do not type the unit.

INPUT: Lab note: need IC50 for C[C@H](NC(=O)[C@H](CO)NC(=O)[C@H](CCCCNC(=O)c1cc2ccccc2o1)NS(C)(=O)=O)C(=O)N1CCC[C@H]1C(N)=O [MsKSAP] (Ms-K(Benzofuran(2-CO))SAP-NH2) on YEATS2 YEATS domain (Homo sapiens, UniProt Q9ULM3), anyone have it?
OUTPUT: 600
